TARGET_DESC: isolated recombinant JAK2 kinase domain (Homo sapiens (Human), UniProt O60674)
Sequence (O60674 849-1124): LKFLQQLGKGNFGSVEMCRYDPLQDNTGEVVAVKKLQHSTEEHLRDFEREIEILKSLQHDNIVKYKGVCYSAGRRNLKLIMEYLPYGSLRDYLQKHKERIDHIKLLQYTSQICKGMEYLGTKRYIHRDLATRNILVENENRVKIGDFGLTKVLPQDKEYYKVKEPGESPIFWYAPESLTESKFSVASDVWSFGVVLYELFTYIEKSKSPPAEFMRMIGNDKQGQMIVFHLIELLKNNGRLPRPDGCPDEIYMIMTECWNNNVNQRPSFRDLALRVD
ASSAY_DETAILS: JAK2 enzyme assay (Caliper LabChip, peptide phosphorylation)
APPLIED_CONDITIONS: 25 μM ATP

>  <CHEM_SMILES>
O=C(Nc1cn(C2CCN(CCCC(=O)N3CCOCC3)CC2)nc1-c1cc(Cl)ccc1OC(F)F)c1cnn2cccnc12

>  <Ki>
0.22 nM

$$$$
>  <CHEM_SMILES>
O=C(Nc1cn(CC(=O)N2CCC(N3CCCC3)CC2)nc1-c1cc(Cl)ccc1OC(F)F)c1cnn2cccnc12

>  <Ki>
2.45 nM

$$$$
>  <CHEM_SMILES>
CN(CCc1ccc(O)cc1)C1CCN(C(=O)Cn2cc(NC(=O)c3cnn4cccnc34)c(-c3cc(Cl)ccc3OC(F)F)n2)CC1

>  <Ki>
1.31 nM

$$$$
>  <CHEM_SMILES>
CN(CCC#N)C1CCN(C(=O)Cn2cc(NC(=O)c3cnn4cccnc34)c(-c3cc(Cl)ccc3OC(F)F)n2)CC1

>  <Ki>
0.7 nM

$$$$
